Just for reference, ChEMBL document CHEMBL5506059 is where these values come from.

Experiment: Cytotoxicity against human FHC assessed as cell viability at 20 ug/ml measured after 24 hrs by MTT assay relative to control
Assay type: toxicity, cell-based
Details: FHC cells, at 20 µg/mL, read-out: Activity
quantity kind: viability at 24 h, 20 ug/ml

| test smiles | value reported |
| --- | --- |
| N#CCc1cc2c(cc1F)c(=O)c(C(=O)O)cn2Cc1ccccc1Cl | > 80% |

---

System: Cell membrane
Assay: Induction of cell membrane depolarization in Pseudomonas aeruginosa assessed as increase in fluorescence intensity at 1 ug/ml measured for 30 mins by DiSC35 dye based fluorescence analysis
Assay type: cell membranes
Conditions: dose 1.0 µg/ml
Calls of active or inactive are those of the source. The rule behind the calls is not given here.
Labels: active, inactive

| test smiles | group label |
| --- | --- |
| C[C@H]1COc2c(CC#N)c(F)cc3c(=O)c(C(=O)O)cn1c23 | active |
| O=C(O)c1cn(C2CC2)c2cc(N3CCNCC3)c(F)cc2c1=O | inactive |
| O=C(O)Cc1cc2c(cc1F)c(=O)c(C(=O)O)cn2C1CC1 | active |
| N#CCc1cc2c(cc1F)c(=O)c(C(=O)O)cn2C1CC1 | active |

---

System: Cell membrane
Test: Induction of cell membrane depolarization in methicillin-resistant Staphylococcus aureus assessed as increase in fluorescence intensity at 1 ug/ml measured for 30 mins by DiSC35 dye based fluorescence analysis
Format: cell membranes
Details: dose 1.0 µg/ml
The source made the active and inactive calls. No cut-off for these calls is given here.
Labels: active, inactive

| test smiles | group label |
| --- | --- |
| O=C(O)Cc1cc2c(cc1F)c(=O)c(C(=O)O)cn2C1CC1 | active |
| C[C@H]1COc2c(CC#N)c(F)cc3c(=O)c(C(=O)O)cn1c23 | active |
| O=C(O)c1cn(C2CC2)c2cc(N3CCNCC3)c(F)cc2c1=O | inactive |
| N#CCc1cc2c(cc1F)c(=O)c(C(=O)O)cn2C1CC1 | active |

---

Some compounds, each annotated with its measured IC50 at 24 h.
Test: Cytotoxicity against human FHC assessed as inhibition of cell growth measured after 24 hrs by MTT assay
Format: toxicity, cell-based
Settings: FHC cells

| test smiles | IC50 at 24 h / µg/mL |
| --- | --- |
| N#CCc1cc2c(cc1F)c(=O)c(C(=O)O)cn2Cc1ccccc1Cl | 141 |
| C[C@H]1COc2c(CC#N)c(F)cc3c(=O)c(C(=O)O)cn1c23 | 21 |

---

System: Staphylococcus aureus
Experiment: Antibacterial activity against Staphylococcus aureus ATCC 29213 assessed as inhibition of bacterial growth incubated for 24 hrs
Assay type: functional

| molecule | tested target | MIC, µg/mL |
| --- | --- | --- |
| N#CCc1cc2c(cc1F)c(=O)c(C(=O)O)cn2CC1CCCCC1 | Staphylococcus aureus | 256 |
| CCCCCCCCn1cc(C(=O)O)c(=O)c2cc(F)c(CC#N)cc21 | Staphylococcus aureus | 256 |
| CCCCn1cc(C(=O)O)c(=O)c2cc(F)c(CC#N)cc21 | Staphylococcus aureus | 8 |
| N#CCc1cc2c(cc1F)c(=O)c(C(=O)O)cn2Cc1ccc(Cl)cc1 | Staphylococcus aureus | 4 |
| C[C@H]1COc2c(CC(=O)O)c(F)cc3c(=O)c(C(=O)O)cn1c23 | Staphylococcus aureus | 1 |
| C=CCn1cc(C(=O)O)c(=O)c2cc(F)c(CC#N)cc21 | Staphylococcus aureus | 4 |
| N#CCc1cc2c(cc1F)c(=O)c(C(=O)O)cn2Cc1c(F)cccc1F | Staphylococcus aureus | 4 |
| N#CCc1cc2c(cc1F)c(=O)c(C(=O)O)cn2Cc1ccc(F)cc1F | Staphylococcus aureus | 0.5 |
| O=C(O)Cc1cc2c(cc1F)c(=O)c(C(=O)O)cn2Cc1ccccc1Cl | Staphylococcus aureus | 8 |
| CC(C)=CCn1cc(C(=O)O)c(=O)c2cc(F)c(CC#N)cc21 | Staphylococcus aureus | 16 |
| CCn1cc(C(=O)O)c(=O)c2cc(F)c(CC(=O)O)cc21 | Staphylococcus aureus | 32 |
| N#CCc1cc2c(cc1F)c(=O)c(C(=O)O)cn2Cc1ccccc1Cl | Staphylococcus aureus | 0.25 |
| CCCCCCn1cc(C(=O)O)c(=O)c2cc(F)c(CC#N)cc21 | Staphylococcus aureus | 256 |
| N#CCc1cc2c(cc1F)c(=O)c(C(=O)O)cn2Cc1ccccn1 | Staphylococcus aureus | 8 |
| CCn1cc(C(=O)O)c(=O)c2cc(F)c(CC#N)c(F)c21 | Staphylococcus aureus | 1 |
| N#CCc1cc2c(cc1F)c(=O)c(C(=O)O)cn2Cc1cc(F)ccc1F | Staphylococcus aureus | 256 |
| N#CCc1cc2c(cc1F)c(=O)c(C(=O)O)cn2CCN1CCOCC1 | Staphylococcus aureus | 4 |
| N#CCc1cc2c(cc1F)c(=O)c(C(=O)O)cn2Cc1cnc(Cl)s1 | Staphylococcus aureus | 4 |
| N#CCc1cc2c(cc1F)c(=O)c(C(=O)O)cn2CC(=O)N1CCCCC1 | Staphylococcus aureus | 4 |
| CCCCCn1cc(C(=O)O)c(=O)c2cc(F)c(CC#N)cc21 | Staphylococcus aureus | 8 |
| O=C(O)Cc1cc2c(cc1F)c(=O)c(C(=O)O)cn2Cc1ccccn1 | Staphylococcus aureus | 64 |
| N#CCc1cc2c(cc1F)c(=O)c(C(=O)O)cn2C1CC1 | Staphylococcus aureus | 1 |
| O=C(O)c1cn(C2CC2)c2cc(N3CCNCC3)c(F)cc2c1=O | Staphylococcus aureus | 0.5 |
| O=C(O)Cc1cc2c(cc1F)c(=O)c(C(=O)O)cn2C1CC1 | Staphylococcus aureus | 2 |
| N#CCc1cc2c(cc1F)c(=O)c(C(=O)O)cn2Cc1ccc(Cl)cc1Cl | Staphylococcus aureus | 2 |
| CCn1cc(C(=O)O)c(=O)c2cc(F)c(CC#N)cc21 | Staphylococcus aureus | 4 |
| CCCn1cc(C(=O)O)c(=O)c2cc(F)c(CC#N)cc21 | Staphylococcus aureus | 4 |
| CCn1cc(C(=O)O)c(=O)c2cc(F)c(N3CCNCC3)cc21 | Staphylococcus aureus | 4 |
| N#CCc1cc2c(cc1F)c(=O)c(C(=O)O)cn2Cc1cccc(Cl)c1 | Staphylococcus aureus | 0.5 |
| Cc1ccc(Cn2cc(C(=O)O)c(=O)c3cc(F)c(CC#N)cc32)cc1 | Staphylococcus aureus | 256 |
| N#CCc1cc2c(cc1F)c(=O)c(C(=O)O)cn2CC1CC1 | Staphylococcus aureus | 1 |
| NC1CCN(c2c(F)cc3c(=O)c(C(=O)O)cn(C4CC4)c3c2Cl)C1 (configuration not stated) | Staphylococcus aureus | 0.5 |

---

Experiment: Hemolytic activity in human Red blood cells at 32 ug/ml measured after 1.5 hrs by absorbance based assay relative to control
Format: toxicity, cell-based, Erythrocyte
Conditions: red blood cells (erythrocytes), at 32 µg/mL, read-out: Activity
quantity kind: hemolysis at 1.5 h, 32 ug/ml

| test smiles | quantity kind | value reported |
| --- | --- | --- |
| N#CCc1cc2c(cc1F)c(=O)c(C(=O)O)cn2Cc1ccccc1Cl | hemolysis at 1.5 h, 32 ug/ml | 4% |

---

Tested on: Staphylococcus epidermidis
Experiment: Antibacterial activity against Staphylococcus epidermidis ATCC 12228 assessed as inhibition of bacterial growth incubated for 24 hrs
Type: functional
Some molecules, each annotated with its measured MIC.
quantity kind: MIC (µg/mL)

| molecule | tested target | value reported |
| --- | --- | --- |
| O=C(O)Cc1cc2c(cc1F)c(=O)c(C(=O)O)cn2C1CC1 | Staphylococcus epidermidis | 2 |
| N#CCc1cc2c(cc1F)c(=O)c(C(=O)O)cn2C1CC1 | Staphylococcus epidermidis | 0.5 |
| O=C(O)c1cn(C2CC2)c2cc(N3CCNCC3)c(F)cc2c1=O [CIPROFLOXACIN] | Staphylococcus epidermidis | 0.125 |
| CCn1cc(C(=O)O)c(=O)c2cc(F)c(N3CCNCC3)cc21 [NORFLOXACIN] | Staphylococcus epidermidis | 1 |
| CCn1cc(C(=O)O)c(=O)c2cc(F)c(CC#N)cc21 | Staphylococcus epidermidis | 256 |
| C#CCn1cc(C(=O)O)c(=O)c2cc(F)c(CC#N)cc21 | Staphylococcus epidermidis | 4 |
| C[C@H]1COc2c(CC#N)c(F)cc3c(=O)c(C(=O)O)cn1c23 | Staphylococcus epidermidis | 0.25 |
| CCCCCCCCn1cc(C(=O)O)c(=O)c2cc(F)c(CC#N)cc21 | Staphylococcus epidermidis | 128 |
| N#CCc1cc2c(cc1F)c(=O)c(C(=O)O)cn2Cc1ccccc1Cl | Staphylococcus epidermidis | 0.25 |
| N#CCc1cc2c(cc1F)c(=O)c(C(=O)O)cn2Cc1ccc(F)cc1F | Staphylococcus epidermidis | 64 |
